ASSAY: yeast display, Sf9 membrane polyspecificity reagent, FACS + sequencing; frameworks hold sequencing errors
OBSERVABLE: polyreactivity (PSR sort gate)

1) QVQLVESGGGLVQAGGSLRLSCAASGRIFVHYVMGWYRQAPGKERELVAAITVSGGGTYYADSVKGRFTISRDNAKNTVYFQMNSLTPEDTAVYYCNAVPHPYDWGQGTQLTVSS	low polyreactivity
2) QVQLVESGAGLVQEGGSLRLSCAASGSIFVGNAMGWYRQAPGKERELVATISWSGGSTYYADSVKGRFTISRDNAKNTVYLQMNSLKPEDTAVYYCAKTPYRRYRYGGYTYRTYDYWGQGTQVTVSS	low polyreactivity
